Tested on: Listeria monocytogenes 10403S
procedure_summary: growth inhibition relative to ceftriaxone-alone control; higher = stronger potentiation of ceftriaxone growth inhibition
assay_setup: 10 µM; ceftriaxone 1 ug/ml; 12 h
assay_endpoint: growth inhibition

Here are 2 compounds together with their reported answers.
| smiles_str | measurement_target | growth inhibition |
| --- | --- | --- |
| O=C(Nc1n[nH]c2nc(-c3ccco3)c(Br)cc12)C1CC1 | Listeria monocytogenes 10403S | -3.36% |
| Cc1cnc(Nc2ccc(OCCN3CCCC3)cc2)nc1Nc1cccc(S(=O)(=O)NC(C)(C)C)c1 | Listeria monocytogenes 10403S | 39% |

Query compound follows.
Give growth inhibition for the following compound: `Fc1cccc(COc2ccc(Nc3ncnc4sc(-c5cccs5)cc34)cc2Cl)c1`
-4.36%

----------
Tested on: Listeria monocytogenes 10403S;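 also: End-point A600 read in BHI broth at 37 °C with 2% DMSO, inhibition computed as (1 − OD with compound plus ceftriaxone ÷ OD with ceftriaxone only) × 100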
procedure_summary: growth inhibition relative to ceftriaxone-alone control; higher = stronger potentiation of ceftriaxone growth inhibition
assay_setup: 10 µM; ceftriaxone 1 ug/ml; 12 h
We use 10% as the dividing line for growth inhibition: on or above the line is y, below is n.

Please review the entries below; each comes with its answer.
| compound | measurement_target | label |
| --- | --- | --- |
| COc1cc2c(Nc3ccc(NC(=O)c4ccccc4)cc3)ncnc2cc1OCCCN1CCOCC1 | Listeria monocytogenes 10403S | y |
| CS(=O)(=O)Nc1cccc(-c2ccc3c(NC(=O)C4CC4)n[nH]c3c2)c1 | Listeria monocytogenes 10403S | n |
| CC1=C(C(=O)Nc2ccc3[nH]ncc3c2)C(c2ccc(F)cc2)N=C(c2ccc(C(F)(F)F)nc2)N1 (configuration not stated) | Listeria monocytogenes 10403S | n |
| O=C(Nc1cc(C(F)(F)F)cc(C(F)(F)F)c1)c1cc(Cl)ccc1O | Listeria monocytogenes 10403S | y |
| COc1ccc(-c2ccc3c(NC(=O)C4CC4)n[nH]c3n2)cc1 | Listeria monocytogenes 10403S | n |
| Cn1cc(-c2ccc3ncc(Cc4ccc5ncccc5c4)n3n2)cn1 | Listeria monocytogenes 10403S | n |

Does the compound `Cc1cccc(-c2n[nH]cc2-c2ccc3ncccc3n2)n1` have recorded growth inhibition that is 10% or more?
n

Evaluate `Clc1ccc(C2(c3ccc(-c4cn[nH]c4)cc3)CCNCC2)cc1` : growth inhibition at minimum 10%?
y

Does `Cc1cnc(NC(=O)Nc2cc(Br)c(C)cc2OC[C@@H]2CNCCO2)cn1` have a reported growth inhibition of at least 10%?
y

Does `CC(C)c1cnn2c(NCc3ccccc3)cc(NCCCCCCN)nc12` have a reported growth inhibition of at least 10%?
y

growth inhibition >= 10% for `Cc1cn(-c2cc(NC(=O)c3ccc(C)c(Nc4nccc(-c5cccnc5)n4)c3)cc(C(F)(F)F)c2)cn1` ?
y

In plain terms: is recorded growth inhibition at least 10% for `CCN1CCN(c2ccc(Nc3cc(N(C)C(=O)Nc4c(Cl)c(OC)cc(OC)c4Cl)ncn3)cc2)CC1` ?
y

Given the entry `CN(c1ccc(NC(=O)Nc2ccc(OC(F)(F)F)cc2)cc1)c1ccnc(Nc2cccc(S(N)(=O)=O)c2)n1` , answer whether its growth inhibition meets or surpasses 10%.
n

Is the recorded value of growth inhibition equal to or greater than 10% for this compound? `Cc1cc(-c2ccccn2)cc(C)c1/C=C/c1cncc(-c2nn[nH]n2)c1`
n

Please indicate if the recorded growth inhibition for `CC(=O)Nc1nc(C)c(-c2ccc(Cl)c(S(=O)(=O)NCCO)c2)s1` meets or exceeds 10%.
y

Hi team, for `COc1cc2c(cc1Nc1nc(Nc3cccc(F)c3C(N)=O)c3cc[nH]c3n1)N(C(=O)CN1CCN(C(C)C)CC1)CC2` , is the recorded growth inhibition at or above 10%?
n

Could you verify whether the entry `O=C(NCC1CC1)c1ccc(-c2cccc(C(=O)NC3CC3)c2)cc1` shows growth inhibition of no less than 10%?
n

Quick check: does CCn1c(N)c(C(=O)NC)c(=O)c2ccc(C#CC(C)(O)COC)nc21 (configuration not stated) have growth inhibition greater than or equal to 10%?
n

Item `COc1cc2ncn(-c3cc(O[C@@H](C)c4ccccc4Cl)c(C(N)=O)s3)c2cc1OC` with growth inhibition of 10% or above?
n

Is it the case that `Cn1cc(C=C2C(=O)Nc3cccnc32)c2ccccc21` has growth inhibition reaching or exceeding 10%?
n

Test whether the compound `O=C(Nc1cccc(Cl)c1)Nc1ncc(CCNc2ncnc3ccsc23)s1` records growth inhibition of 10% or higher.
y

Quick check: does `CN1CCN(C(=O)c2ccc(NC(=O)Nc3ccc(N(C)c4ccnc(Nc5ccc(CS(C)(=O)=O)cc5)n4)cc3)cc2)CC1` have growth inhibition greater than or equal to 10%?
n
